The origin of these recorded values is patent US20180094062A1.

biological target: T1, human recombinant HER3 Extracellular Domain (HER3 ECD) (human, UniProt P21860 20-643); assay: SPR Biacore 4000 kinetic screening, antibody captured, analyte 150 nM, 25 C
T1 construct: 68 kDa; also called human-Her3-ECD
Experimental endpoint: MR (Molar Ratio)
One number for each entry.

Binder	Experimental endpoint	Experimental result
anti-HER3 antibody M-17-02 (antibody, V domains shown, mouse hybridoma clone) VH: EVQLQQSGTVLARPGASVKMSCKASGYSFTSYWIHWVKQRPGQGLEWIGAIYPGNSDTTYNQKFKGKAKLTAVTSASTAYMELSSLTNEDSAVYYCARTGVWTSYYFDYWGQGTTLTVSS VL: DIQMTQSPASLSASVGETVTITCRASENIYSNLAWYQQKQGKSPQLLVYAATNLADGVPSRFSGSGSGTQFSLRINSLQPEDFGSYYCQHFYGTPFTFGTGTKLEIK	MR (Molar Ratio)	0.1

Provide each entry's MR (Molar Ratio) from the list below.
1. anti-HER3 antibody M-46-01 (antibody, V domains shown, mouse hybridoma clone) VH: QIQLQQSGPQLVRPGASVKISCKASGYSFTSYWMHWVKQRPGRGLEWIGMIDPSDGVTRLNQKFKDKATLTVDNSSSTAYMQLSSPTSEDSAVHYCARVDVLYWYFDVWGAGTTVTVSS VL: DIVLTQSPASLAVSLGQRATISCRASKSISISGYSYMHWYQQKAGQPPKLLIYLTSNLESGVPARFSGSGSGTDFTLNIHPVEEEDAATYYCHHSRELPFTFGSGTKLEIK
2. anti-HER3 antibody M-43-01 (antibody, V domains shown, mouse hybridoma clone) VH: EVQLQQSGTVLARPGASVKMSCKASDYTFSNYWVHWVKQRPGQGLEWIGAIYPGNGDSTYYQKFKGKATLTAVTSTSTAYMDLSSLTNGDSAVYFCTRSGVGYNYYFDYWGQGTTLTVSS VL: DIQMTQSPASLSASVGETVTITCRASENIYSNLAWYQQKQGKSPQLLVYIATNLADGVPSRFSGSGSGTQFSLKINSLQPEDLGSYYCQHFYGTPFTFGTGTKLEIE
3. anti-HER3 antibody M-08-11 (antibody, V domains shown, mouse monoclonal antibody from hybridoma, tested as hybridoma supernatant or as antibody; also called M-011) VH: QAYLQQSGAELMRPGASVRMSCQASGYTFTSYTIHWLKQTPRQGLEWIGAIYPRNGDFSYNQKFKDKASLTVDTSSSTAYMHLSSLTSEDSAVYFCARTINYGDWFAYWGQGTLVTVSA VL: DIQMIQSPASLFVSEGETVIITCRASENIYSNLAWYHQKKGKSPQVLVYAAIKLADGVPLRFSGSGSGTQFSLKINSLQSEDFGSYYCQHFWGPPYTFGSGTNLEIK

Result:
[0.2, 0.1, 0.4]
